Source listed as ChEMBL document CHEMBL3112508.

Test system UniProt P49682, pIC50 listed for each of the compounds.
Sequence (P49682 whole entry): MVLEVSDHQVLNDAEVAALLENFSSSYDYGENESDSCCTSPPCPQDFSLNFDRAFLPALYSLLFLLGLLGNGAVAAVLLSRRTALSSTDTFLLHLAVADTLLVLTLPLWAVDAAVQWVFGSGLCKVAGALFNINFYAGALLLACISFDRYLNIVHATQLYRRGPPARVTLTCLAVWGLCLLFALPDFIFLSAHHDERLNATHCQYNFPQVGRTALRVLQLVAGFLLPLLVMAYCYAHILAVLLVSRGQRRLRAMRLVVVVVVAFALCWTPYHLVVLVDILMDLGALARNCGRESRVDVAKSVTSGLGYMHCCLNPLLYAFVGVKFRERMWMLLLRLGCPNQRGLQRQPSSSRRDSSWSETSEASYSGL
Conceptually, pIC50 converts a concentration in mol/L into minus its log10.

Look up pIC50: `CCNc1nnc(-c2cnc(N3CCN(C4CCN(C(=O)c5ccc(Cl)nc5N)CC4)[C@@H](CC)C3)c(Cl)n2)o1`
9.10

Now try `CC[C@H]1CN(c2ncc(-c3nnc(N)o3)nc2C)[C@H](C)CN1C1CCN(C(=O)c2ccc(Cl)cc2)CC1` .
8.19

Now try `CCNc1nnc(-c2cnc(N3C[C@H](CC)N(C4CCN(C(=O)c5ccc(Cl)cc5)CC4)C[C@H]3C)c(C)n2)o1` .
8.55

Now try `CC[C@H]1CN(c2nc(N)c(-c3nnc(N(C)C)o3)nc2Cl)CCN1C1CCN(C(=O)c2ccc(Cl)nc2N)CC1` .
7.63

Now try `CC[C@H]1CN(c2ncc(-c3nnc[nH]3)nc2C)[C@H](C)CN1C1CCN(C(=O)c2ccc(Cl)cc2)CC1` .
7.47

Next:
Look up pIC50: `CC[C@H]1CN(c2ncc(-c3nnc(NC)o3)nc2C)[C@H](C)CN1C1CCN(C(=O)c2ccc(Cl)cc2)CC1`
8.21

Now try `CCNc1nnc(-c2cnc(N3CCN(C4CCN(C(=O)c5ccc(Cl)nc5N)CC4)[C@@H](CC)C3)c(C3CC3)n2)o1` .
7.61

Now try `CC[C@H]1CN(c2ncc(C#N)cc2Cl)CCN1C1CCN(Cc2ccc(Cl)cc2F)CC1` .
7.30

Now try `CCNc1nnc(-c2cnc(N3C[C@H](CC)N(C4CCN(C(=O)c5ccc(Cl)nc5N)CC4)C[C@H]3C)c(C(F)(F)F)n2)o1` .
8.44

Now try `CC[C@H]1CN(c2ncc(-c3ncon3)cc2Cl)CCN1C1CCN(Cc2ccc(Cl)cc2F)CC1` .
6.54

Now try `CC[C@H]1CN(c2nc(N)c(-c3nnco3)nc2Cl)CCN1C1CCN(Cc2ccc(Cl)cc2)CC1` .
8.28
